Origin of measurements: paper PMC8347774

- subject-of-test: T1, biotinylated His6 peptide (bio-EGGGSHHHHHH-COOH) (synthetic peptide, SMILES …)
- T1 construct: spacer EGGGS and His6; Held on streptavidin biosensors by its biotin; source: synthetic peptide (PSSM-8 peptide synthesizer)
- T1 chain: Biotin-EGGGSHHHHHH-OH
- procedure-summary: BLI; biotinylated His6 peptide (100 nM) loaded on streptavidin biosensors; unlabeled protein or Q-body in two-fold dilutions in Kinetic buffer (phosphate, 150 mM NaCl, 0.002% Tween20, 0.1% BSA, pH 7.4); global fit, 1:1 model; Octet K2
- experimental-setup: both partners purified
The star is where a group is joined. Biotin = O=C1N[C@H]2[C@H](CS[C@H]2CCCCC(=O)*)N1
experimental-endpoint: kon (M⁻¹ s⁻¹)
Express the result in M⁻¹ s⁻¹ but write the number alone.

Observe how each entry below is paired with its result.
>  <binder>
5-TAMRA C6 maleimide double-labeled wild-type Fab 3D5 Q-body (Fab, V domains shown, VH of antibody 3D5, as in m7; CH1 of the vector pUQ2, as in m7; VL of antibody 3D5, as the light chain of m7; CL of the vector pUQ2, as the light chain of m7; m7 labelled with two dyes; also called Wild-type TAMRA; source: E. coli SHuffle T7 Express with pGro7, purified (Talon IMAC), labelled, purified (anti-FLAG M2 beads, G-25); not shown: Cys-tag, N-terminal, kept; His6, C-terminal, kept; myc, …) VH: QVQLQQSGPEDVKPGASVKISCKASGYTFTDYYMNWVKQSPGKGLEWIGDINPNNGGTSYNQKFKGRATLTVDKSSSTAYMELRSLTSEDSSVYYCESQSGAYWGQGTTVTVSA VL: DILMTQTPSSLPVSLGDQASISCRSSQSIVHSNGNTYLEWYLQKPGQSPKLLIYKVSNRFSGVPDRFSGSGSGTDFTLKISRVEAEDLGVYYCFQGSHVPFTFGSGTKLEIK

>  <kon (M⁻¹ s⁻¹)>
210000

$$$$
>  <binder>
anti-His scFv 3D5 (wild-type) (scFv, V domains shown, VH of antibody 3D5 (anti-C-terminal His tag); numbers count on: Kabat numbering of the heavy chain; linker between VH and VL of the VH-VL type scFv (synthesised gene in pEX-K4J2-1KTR); VL of antibody 3D5; VH-VL order, vector pSQ (3D5); also called wild-type scFv; source: E. coli SHuffle T7 Express with pGro7, purified (Talon IMAC); not shown: Cys-tag, N-terminal, kept; His6, C-terminal, kept; …) VH: QVQLQQSGPEDVKPGASVKISCKASGYTFTDYYMNWVKQSPGKGLEWIGDINPNNGGTSYNQKFKGRATLTVDKSSSTAYMELRSLTSEDSSVYYCESQSGAYWGQGTTVTVSA VL: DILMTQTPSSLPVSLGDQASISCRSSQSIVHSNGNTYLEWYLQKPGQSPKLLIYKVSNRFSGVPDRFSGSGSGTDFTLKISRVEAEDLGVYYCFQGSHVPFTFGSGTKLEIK

>  <kon (M⁻¹ s⁻¹)>
84500

$$$$

Lookup: So what's the measured kon for this one? anti-His Fab 3D5 YW variant (Fab, V domains shown, VH of antibody 3D5, as the VH of m7 with the stated change; numbers count on: Kabat numbering of the heavy chain; CH1 of the vector pUQ2, as in m7; VL of antibody 3D5, as the light chain of m7; CL of the vector pUQ2, as the light chain of m7; YW read as Tyr kept at 32H and Trp at 33H; source: E. coli SHuffle T7 Express with pGro7, purified (Talon IMAC); not shown: Cys-tag, N-terminal, kept; His6, …) VH: QVQLQQSGPEDVKPGASVKISCKASGYTFTDYWMNWVKQSPGKGLEWIGDINPNNGGTSYNQKFKGRATLTVDKSSSTAYMELRSLTSEDSSVYYCESQSGAYWGQGTTVTVSA VL: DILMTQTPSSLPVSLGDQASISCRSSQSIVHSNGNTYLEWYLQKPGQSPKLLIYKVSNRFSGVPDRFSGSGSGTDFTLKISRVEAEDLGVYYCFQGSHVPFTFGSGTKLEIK
Found: 139000
